Data origin: patent US20110166062A1

# testSystem: GLP-1 receptor (UniProt P43220 24-463, limits assumed)
# protocolNotes: cell-based or functional assay
Bridges are numbered along the chain shown (N, C = ends). Primed or numbered codes have the meaning given here. Where no end group is shown, it is not given here. [ ]: non-standard residue; d: D form. PEG 40 kDa″ = polyethylene glycol of 40 kDa covalently attached to the side chain; PEG 40 kDa = PEG (40 kDa) covalently attached to Cys; Aib = CC(C)(N)C(=O)O
Below, each entry is listed with its recorded EC50.
Enter your answer as a number in nM; do not include the unit.

Sample records with EC50:
Look up and report measured EC50 for this entry: Y[Aib]EGTFTSDYSIYLDEQAAKEFVNWLLAGKGKKNWLKHNITQC-NH2 (lactam 16-20) [mt-206]
0.095

Quote EC50 reported for Y[Aib]QGTFTSEYSKYLDEQAAKEFVNWLLAGGPSSGAPPPSC-NH2 (lactam 9-12, 16-20; not fully specified) [mt-209] please.
2.34

Determine its reported EC50: Y[Aib]QGTFISDYSIYLDEQAAKEFVNWLLAGGPSSGAPPPSC-NH2 (lactam 16-20) [mt-176]
8.69

Note EC50 for the binder shown: Y[Aib]QGTFISDYSIYLDEQAAKEFVNWLLAGGPSSGAPPPSC(PEG 40 kDa)-NH2 (lactam 16-20) [mt-182]
10

Consider the binder Y[Aib]EGTFTSDYSIYLDEQAAKEFVNWLLAGKGKKNWLKHNITQC(PEG 40 kDa″)-NH2 (lactam 16-20) [mt-208] . State its measured EC50.
0.262

More entries:
Report EC50 for Y[Aib]QGTFTSDYSIYLDEQAAKEFVNWLLAGKGKKNWLKHNITQC-NH2 (lactam 16-20) [mt-207]
0.073

Please report EC50 for the following binder: Y[Aib]QGTFTSDYSIYLDEQAAKEFVC(PEG 40 kDa)WLLAG-NH2 (lactam 16-20) [mt-172]
0.859
